Hey, just so you know, these numbers are from patent US12655142B2.

target: c-Kit(V654A) (Homo sapiens, UniProt P10721, V654A); construct: recombinant human c-Kit, amino acids 544-end containing the V654A mutation; GST (N); assay: c-Kit(V654A) assay (33P-ATP filter binding kinase assay); details: recombinant human c-Kit aa 544-end V654A, ATP 200 μM
Sequence (P10721 544-976 V654A): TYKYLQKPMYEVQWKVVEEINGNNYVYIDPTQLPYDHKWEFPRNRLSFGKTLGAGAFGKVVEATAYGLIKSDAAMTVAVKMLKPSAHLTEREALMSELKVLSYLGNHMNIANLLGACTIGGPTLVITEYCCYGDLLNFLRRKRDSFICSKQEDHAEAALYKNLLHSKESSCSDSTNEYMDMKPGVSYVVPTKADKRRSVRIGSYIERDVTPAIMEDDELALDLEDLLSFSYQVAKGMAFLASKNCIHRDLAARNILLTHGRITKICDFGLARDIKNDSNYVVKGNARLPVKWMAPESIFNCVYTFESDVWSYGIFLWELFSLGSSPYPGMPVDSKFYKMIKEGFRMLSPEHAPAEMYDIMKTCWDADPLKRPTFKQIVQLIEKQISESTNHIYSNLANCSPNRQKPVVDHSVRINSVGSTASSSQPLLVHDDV
Reported IC50 values for the following compounds.
reported-property: IC50 (nM)

| compound | assay-result |
| --- | --- |
| OCCOc1ccn2c(-c3cc(NCc4ccc(-c5cocn5)cc4)ncn3)cnc2c1 [A251] | 2 |
| Cn1cc(-c2ccc(CNc3cc(-c4cnc5cc(OCCn6cccn6)ccn45)ncn3)cc2)cn1 [A255] | 15 |
| Cn1ncc(-c2ccc(CNc3cc(-c4cnc5cc(OCC(C)(C)O)ccn45)ncn3)cc2)n1 [A85] | 6.5 |
| CN1CCN(CCCOc2ccn3c(-c4cc(NCc5ccc(-c6cnn(C)n6)cc5)ncn4)cnc3c2)CC1 [A96] | 2.9 |
| Cn1ncc(-c2ccc(CNc3cc(-c4cnc5cc(N6CCC(CCO)C6)ccn45)ncn3)cc2)n1 (centres unmarked) [A179] | 3.1 |
| COc1ccn2c(-c3cc(OC(C)c4ccc(-c5cnn(C)c5)cc4)ncn3)cnc2c1 (centres unmarked) [A171] | 58 |
| COCCOc1ccn2c(-c3cc(NCc4ccc(-c5ccn(C)n5)cc4)ncn3)cnc2c1 [A7] | 4.7 |
| CN1CCOC[C@@H]1COc1ccn2c(-c3cc(NCc4ccc(-c5cnn(C)c5)cc4)ncn3)cnc2c1 [A124] | 7.4 |

---

Biological target: c-Kit(V654A) (Homo sapiens, UniProt P10721, V654A)
Construct: recombinant human c-Kit, amino acids 544-end containing the V654A mutation; GST (N)
Experiment: c-Kit(V654A) assay (33P-ATP filter binding kinase assay)
Conditions: recombinant human c-Kit aa 544-end V654A, ATP 200 μM
Description: c-Kit(V654A) (N-terminal GST-tagged, recombinant human c-Kit, amino acids 544-end containing the V654A mutation) is incubated with 8 mM MOPS pH 7.0, 0.2 mM EDTA, 250 μM GGMEDIYEFMGGKKK, 10 mM MgAcetate and [gamma-33P-ATP] (specific activity approx. 500 cpm/pmol, concentration 200 μM). The reaction is initiated by the addition of the MgATP mix. After incubation for 40 minutes at room temperature, the reaction is stopped by the addition of 3% phosphoric acid solution. […]
pIC50: −log10 of the molar value.

| item-smiles | pIC50 |
| --- | --- |
| Cn1cc(-c2ccc(CNc3cc(-c4cnc5cc(OCCN6C[C@@H](F)[C@@H](F)C6)ccn45)ncn3)cc2)cn1 | 8.02 |
| Cn1cc(-c2ccc(CNc3cc(-c4cnc5cc([N+](=O)[O-])ccn45)ncn3)cc2)cn1 | 7.57 |
| Cn1cc(-c2ccc(CNc3cc(-c4cnc5cc(OCCN6CC(S(C)(=O)=O)C6)ccn45)ncn3)cc2)cn1 | 8.00 |
| COc1ccn2c(-c3cc(NCc4ccc(-c5cnn(C)n5)cc4)ncn3)cnc2c1 | 8.36 |

---

molecular target: GIST430 cell line expressing constitutive active cKIT receptor tyrosine kinase (Δ560-576 deletion) (Homo sapiens, UniProt P10721, DEL560-576); construct: endogenous in cells; host or cells: GIST430 cells; assay: Cellular cKIT autophosphorylation (phospho-Y307-cKIT, Luminex bead assay) in GIST430 cells; assay type: cell-based; details: cKIT autophosphorylation, GIST430 cells, compounds 45 min; read-out: GIST 430 IC50
Sequence (P10721 with tags, fused parts or gaps DEL560-576): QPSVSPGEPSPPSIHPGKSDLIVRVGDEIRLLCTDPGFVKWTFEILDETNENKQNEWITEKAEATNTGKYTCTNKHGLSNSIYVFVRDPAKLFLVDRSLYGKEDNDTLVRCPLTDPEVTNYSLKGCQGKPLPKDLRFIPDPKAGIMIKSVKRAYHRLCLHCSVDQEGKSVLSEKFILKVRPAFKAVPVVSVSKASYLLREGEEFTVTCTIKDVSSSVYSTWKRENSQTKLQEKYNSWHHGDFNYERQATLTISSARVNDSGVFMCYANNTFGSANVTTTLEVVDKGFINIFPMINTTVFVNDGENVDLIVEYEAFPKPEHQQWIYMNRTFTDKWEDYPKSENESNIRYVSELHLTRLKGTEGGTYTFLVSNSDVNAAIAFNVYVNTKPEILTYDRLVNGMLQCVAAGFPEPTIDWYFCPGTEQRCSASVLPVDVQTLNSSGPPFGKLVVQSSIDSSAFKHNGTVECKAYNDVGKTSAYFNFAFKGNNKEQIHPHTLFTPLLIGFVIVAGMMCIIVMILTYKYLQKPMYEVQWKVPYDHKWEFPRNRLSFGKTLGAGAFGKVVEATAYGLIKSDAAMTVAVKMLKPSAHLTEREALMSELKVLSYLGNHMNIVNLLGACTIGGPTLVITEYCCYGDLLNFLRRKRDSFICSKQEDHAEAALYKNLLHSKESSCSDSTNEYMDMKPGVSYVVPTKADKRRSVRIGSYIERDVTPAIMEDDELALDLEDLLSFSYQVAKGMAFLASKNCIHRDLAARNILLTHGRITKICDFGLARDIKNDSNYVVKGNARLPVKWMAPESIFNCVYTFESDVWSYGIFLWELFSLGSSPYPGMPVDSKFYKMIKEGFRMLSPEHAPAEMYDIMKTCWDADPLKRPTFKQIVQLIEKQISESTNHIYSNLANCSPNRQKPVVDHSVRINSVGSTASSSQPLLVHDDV
pIC50: −log10 of the molar value.

| item-smiles | pIC50 |
| --- | --- |
| COc1ccn2c(-c3ncnc(NCc4ccc(-c5cnn(C)c5)cc4)c3F)cnc2c1 | 8.06 |
| Cn1cc(-c2ccc(CNc3cc(-c4cnc5cc(-n6cncn6)ccn45)ncn3)cc2)cn1 | 8.29 |
| CO[C@H]1CCN(c2ccc(CNc3cc(-c4cnc5ccccn45)ncn3)cn2)C1 | 8.00 |
| Cn1cc(-c2ccc(CNc3cc(-c4cnc5cc(OCCCN6CCC(C)(F)CC6)ccn45)ncn3)cc2)cn1 | 8.36 |
| COc1ccn2c(-c3cc(NCc4ccc(-c5cnn(C)c5)cc4)ncn3)cnc2c1 | 8.49 |
| CN1CCC(COc2ccn3c(-c4cc(NCc5ccc(-c6cnn(C)n6)cc5)ncn4)cnc3c2)CC1 | 8.39 |
| c1ccn2c(-c3cc(NCc4ccc(-n5cccn5)cc4)ncn3)cnc2c1 | 8.62 |
| Cn1cc(-c2ccc(CNc3cc(-c4cnc5cc(OCCN6CCn7nncc7C6)ccn45)ncn3)cc2)cn1 | 8.36 |

---

molecular target: c-Kit(V654A) (Homo sapiens, UniProt P10721, V654A); construct: recombinant human c-Kit, amino acids 544-end containing the V654A mutation; GST (N); test: c-Kit(V654A) assay (33P-ATP filter binding kinase assay); details: recombinant human c-Kit aa 544-end V654A, ATP 200 μM
pIC50: −log10 of the molar value.
Tick Fulfilled if pIC50 is 8 or greater. Tick Not fulfilled if pIC50 is less than 8.

| item-smiles | cat |
| --- | --- |
| COc1ccn2c(-c3cc(NCc4ccc(-c5cn(C)nn5)cc4)ncn3)cnc2c1 | Not fulfilled |
| Cn1ncc(-c2ccc(CNc3cc(-c4cnc5cc(OCc6cccnc6)ccn45)ncn3)cc2)n1 | Not fulfilled |
| Cn1ncc(-c2ccc(CNc3cc(-c4cnc5cc(OCCCNC6COC6)ccn45)ncn3)cc2)n1 | Fulfilled |

---

target: GIST430/654 cell line expressing mutated constitutively active cKIT receptor tyrosine kinase (Δ560-576 deletion and V654A point mutation) (Homo sapiens, UniProt P10721, DEL560-576/V654A); construct: endogenous in cells; test: Cellular cKIT autophosphorylation (phospho-Y307-cKIT, Luminex bead assay) in GIST430/654 cells; conditions: compounds 45 min, read-out: GIST 430/654 IC50
Sequence (P10721 with tags, fused parts or gaps DEL560-576/V654A): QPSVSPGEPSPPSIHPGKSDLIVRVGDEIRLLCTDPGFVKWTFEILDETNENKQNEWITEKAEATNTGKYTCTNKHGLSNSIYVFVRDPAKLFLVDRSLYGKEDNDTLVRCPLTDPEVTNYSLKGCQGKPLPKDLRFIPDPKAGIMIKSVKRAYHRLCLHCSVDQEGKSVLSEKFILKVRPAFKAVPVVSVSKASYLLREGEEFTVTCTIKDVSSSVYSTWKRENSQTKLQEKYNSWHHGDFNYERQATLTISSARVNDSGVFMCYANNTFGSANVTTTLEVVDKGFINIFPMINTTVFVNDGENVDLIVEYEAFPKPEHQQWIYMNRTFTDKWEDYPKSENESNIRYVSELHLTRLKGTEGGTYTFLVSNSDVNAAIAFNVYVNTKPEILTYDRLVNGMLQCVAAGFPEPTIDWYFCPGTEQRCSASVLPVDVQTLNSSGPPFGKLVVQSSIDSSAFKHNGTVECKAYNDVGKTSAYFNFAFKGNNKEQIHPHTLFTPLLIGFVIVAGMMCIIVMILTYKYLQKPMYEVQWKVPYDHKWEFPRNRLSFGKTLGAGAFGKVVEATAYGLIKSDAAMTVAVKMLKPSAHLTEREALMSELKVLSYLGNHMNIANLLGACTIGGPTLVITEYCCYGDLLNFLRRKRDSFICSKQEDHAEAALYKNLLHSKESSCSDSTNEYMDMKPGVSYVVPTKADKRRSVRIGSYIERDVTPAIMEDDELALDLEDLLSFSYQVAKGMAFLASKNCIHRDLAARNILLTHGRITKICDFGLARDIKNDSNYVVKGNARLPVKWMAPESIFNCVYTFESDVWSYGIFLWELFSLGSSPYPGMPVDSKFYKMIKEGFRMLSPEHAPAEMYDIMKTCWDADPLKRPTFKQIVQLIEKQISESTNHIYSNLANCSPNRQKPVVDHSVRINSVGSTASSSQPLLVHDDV
pIC50: −log10 of the molar value.

| molecule | pIC50 |
| --- | --- |
| COCCN1CCC(COc2ccn3c(-c4cc(NCc5ccc(-c6cnn(C)c6)cc5)ncn4)cnc3c2)CC1 | 6.77 |
| CN(C)CCCOc1ccn2c(-c3cc(NCc4ccc(-c5cnn(C)c5)cc4)ncn3)cnc2c1 | 7.37 |
| COc1ccn2c(-c3cc(NCc4ccc(-n5ccnn5)cc4)ncn3)cnc2c1 | 6.70 |
| CN1CCC(CCOc2ccn3c(-c4cc(NCc5ccc(-c6cnn(C)c6)cc5)ncn4)cnc3c2)C1 (centres unmarked) | 7.31 |
| Cn1cc(-c2ccc(COc3cc(-c4cnc5cc(OCCN6CCCC6)ccn45)ncn3)cc2)cn1 | 6.30 |
| COCCOc1ccn2c(-c3cc(NCc4ccc(-c5cnn(C)c5)nc4)ncn3)cnc2c1 | 6.77 |
| CN1CCC(COc2ccn3c(-c4cc(NCc5ccc(-n6ccnn6)cc5)ncn4)cnc3c2)CC1 | 7.42 |
| FC(F)(F)Oc1ccc(CNc2cc(-c3cnc4cc(OCCN5CCn6nncc6C5)ccn34)ncn2)cc1 | 7.11 |

---

biological target: GIST430 cell line expressing constitutive active cKIT receptor tyrosine kinase (Δ560-576 deletion) (Homo sapiens, UniProt P10721, DEL560-576); construct: endogenous in cells; host or cells: GIST430 cells; assay: Cellular cKIT autophosphorylation (phospho-Y307-cKIT, Luminex bead assay) in GIST430 cells; assay type: cell-based; conditions: cell line not specified (GIST); read-out: IC50 [M] GIST
Counter-ions that a name gives are not always drawn.
reported-property: IC50 (M)

| molecule | assay-result |
| --- | --- |
| Cn1cc(-c2ccc(CNc3cc(-c4cnc5cc(OCCCN6CCCC6)ccn45)ncn3)cc2)cn1 [A75 hydrochloride] | 2.1e-09 |

---

Target: GIST430/654 cell line expressing mutated constitutively active cKIT receptor tyrosine kinase (Δ560-576 deletion and V654A point mutation) (Homo sapiens, UniProt P10721, DEL560-576/V654A)
Construct: endogenous in cells
Experiment: Cellular cKIT autophosphorylation (phospho-Y307-cKIT, Luminex bead assay) in GIST430/654 cells
Conditions: compounds 45 min, read-out: GIST 430/654 IC50
Description: Assay Principle for Cellular Testing of cKIT Mutant Inhibitors […] Counts from samples treated with compounds were calculated as percent of control from solvent treated (0.3% DMSO) samples. Dose-response curves were fitted and IC50 values were determined using Genedata Screener software.
# log10 IC50 per entry
reported-property: log10 IC50 (log10 of the value in nM)

| compound | reported-property | assay-result |
| --- | --- | --- |
| COCCN1CCC(COc2ccn3c(-c4cc(NCc5ccc(-c6cnn(C)n6)cc5)ncn4)cnc3c2)CC1 | log10 IC50 | 1.59 |
| CN1CCC(CCOc2ccn3c(-c4cc(NCc5ccc(-c6cnn(C)c6)cc5)ncn4)cnc3c2)CC1 | log10 IC50 | 1.79 |
| CN1CCN(CCOc2ccn3c(-c4cc(NCc5ccc(-n6ccnn6)cc5)ncn4)cnc3c2)CC1 | log10 IC50 | 1.81 |
| CN1CCOC[C@H]1COc1ccn2c(-c3cc(NCc4ccc(-c5cnn(C)c5)cc4)ncn3)cnc2c1 | log10 IC50 | 2.32 |
| Cn1cc(-c2ccc(CNc3cc(-c4cnc5cc(OCCN6CCOC(F)(F)C6)ccn45)ncn3)cc2)cn1 | log10 IC50 | 2.26 |
| CN1CCN(c2ccn3c(-c4cc(NCc5ccc(-c6cnn(C)c6)cc5)ncn4)cnc3c2)CC1 | log10 IC50 | 2.04 |
| Cn1cc(-c2ccc(CNc3cc(-c4cnc5cc(OCCN6CCOCC(F)(F)C6)ccn45)ncn3)cc2)cn1 | log10 IC50 | 2.28 |
| CN1CCC(CCOc2ccn3c(-c4cc(NCc5ccc(-c6cnn(C)n6)cc5)ncn4)cnc3c2)C1 (stereo not shown) | log10 IC50 | 1.68 |
| Cn1ncc(-c2ccc(CNc3cc(-c4cnc5cc(OCC6CCN(CC(F)F)CC6)ccn45)ncn3)cc2)n1 | log10 IC50 | 1.41 |
| Cn1cc(-c2ccc(CNc3cc(-c4cnc5cc(C(F)(F)F)ccn45)ncn3)cc2)cn1 | log10 IC50 | 3.00 |
| Cn1cc(-c2ccc(CNc3cc(-c4cnc5cc(OCCN6CC[S+]([O-])CC6)ccn45)ncn3)cc2)cn1 | log10 IC50 | 1.96 |
| c1cn(-c2ccc(CNc3cc(-c4cnc5cc(OCC6CCN(C7COC7)CC6)ccn45)ncn3)cc2)nn1 | log10 IC50 | 2.49 |
| CN1CCC(COc2ccn3c(-c4cc(NCc5ccc(-c6cnn(C)n6)cc5)ncn4)cnc3c2)CC1 | log10 IC50 | 1.45 |
| Cn1cc(-c2ccc(CNc3cc(-c4cnc5cc(OCC(C)(C)CN6CCCC6)ccn45)ncn3)cc2)cn1 | log10 IC50 | 1.88 |
| Cn1cc(-c2ccc(CNc3cc(-c4cnc5cc(OCCn6cccn6)ccn45)ncn3)cc2)cn1 | log10 IC50 | 2.00 |
| COc1ccn2c(-c3cc(NCc4ccc(-c5cocn5)cc4)ncn3)cnc2c1 | log10 IC50 | 1.72 |
